- SUBJECT_OF_TEST: T1, IL-6R-Fc 항원 (IL-6R full domain 단백질) (human, UniProt P08887 20-365)
- T1 construct: domain: IL-6R full domain; Expressed transiently in HEK293E and purified from the supernatant; also called IL-6R 항원; not shown: Fc part from expression vector pYK 604
- T1 sequence (looked up): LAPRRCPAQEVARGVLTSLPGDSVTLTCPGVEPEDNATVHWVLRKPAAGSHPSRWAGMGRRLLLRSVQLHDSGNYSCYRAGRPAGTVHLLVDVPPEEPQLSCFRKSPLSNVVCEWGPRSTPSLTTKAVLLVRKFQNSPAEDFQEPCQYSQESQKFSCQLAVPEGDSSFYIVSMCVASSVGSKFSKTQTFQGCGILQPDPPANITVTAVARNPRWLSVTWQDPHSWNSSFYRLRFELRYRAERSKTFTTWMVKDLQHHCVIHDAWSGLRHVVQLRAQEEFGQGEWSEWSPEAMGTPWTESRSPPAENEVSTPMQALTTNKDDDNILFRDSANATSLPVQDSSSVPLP
- TEST_PROTOCOL: ELISA, coated IL-6R 100 ng/well, anti-Fab-HRP
OUTCOME_MEASURE: OD 490 nm at 0.39063 nM antibody (OD490)
Write it as a number; the unit OD490 goes unstated.

Please fill in: OD 490 nm at 0.39063 nM antibody reported for 항 IL-6R 단클론 항체 D2 (IgG) (antibody, V domains shown, Phage clone converted to whole IgG) VH: QVQLVESGAEVKKPGSSVKVSCKGSGDTFPNYAINWVRQAPGQGPEWMGRIIPMLGTSDYAEKFQGRVTITADKSTNTAYMGLNSLRSEDTAVYYCVKGPRYYGTDSYYLEKWGQGTMVTVSS VL: SQLVLTQPPSVSGAPGQTVTISCTGPTIGAGYDVHWYQQLPGAAPKLLIYGNLNRPSGVPDRFSGSKSGTSASLAITDLQAEDEADYYCHTYDSSLSGSWVFGGGTKLTVL = 0.473

# OD 490 nm at 0.39063 nM antibody of 항 IL-6R 단클론 항체 F2 (IgG) (antibody, V domains shown, Phage clone converted to whole IgG) VH: QVQLVESGAEVKKPGASVKVSCKASGYTFTNYYMHWVRQAPGQGLEWMGIINPSGGNTGYAQKFQGRVTMTRDMSTSTAYMELSSLRSEDTAVYYCARGLPWGENGLDVWGQGTTVTVSS VL: SQLVLTQPSSVSGAPGQTVTISCTGSSSNIGAGYDVHWYQQLPGTAPKVLIYGDSDRPSGVPDRFSGSKSATSASLAITGLQAEDEADYYCQSYDSSLSAYVFGTGTKVTVL = 1.41

Entry 항 IL-6R 단클론 항체 B10 (IgG) (antibody, V domains shown, Phage clone converted to whole IgG) VH: QVQLVESGGGLVQPGGSLRLSCAASGFIFDDYAMFWVRQVPGKGLEWVAGINWNGNGIGYGDSVRGRFIISRDNARNSLDLQMNSLRAEDTAVYYCARPSLYGGNSEFDLWGQGTLVTVSS VL: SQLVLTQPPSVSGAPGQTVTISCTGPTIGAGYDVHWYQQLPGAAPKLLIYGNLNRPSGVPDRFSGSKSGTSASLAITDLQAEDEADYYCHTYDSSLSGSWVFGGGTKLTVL ; OD 490 nm at 0.39063 nM antibody = 0.476

Form: binder = 항 IL-6R 단클론 항체 A7 (IgG) (antibody, V domains shown, Phage clone converted to whole IgG) VH: QMQLVESGGGLVQPGTSLRLSCAASGFKFEDYAMHWVRQAPGKGLEWVSGVSWNSGTIAYVDSVKGRFTISRDNAKNSLYLQMNSLRAEDTAVYYCARDFTYFYESSGYYAFDLWGQGTMVTVSS VL: SQLVLTQPPSVSGAPGQRVTISCTGTNSNIGAGYDVHWYQQVPGTTPKLLIYGNTNRPSGVPDRFSGSKSGTSASLAITGLQAEDGGDYYCQSFDSSLTGSVFGTGTKVTVL ; OD 490 nm at 0.39063 nM antibody = 0.618
